Kd values, listed per item
Target: T1, P1243_AMBAM (Amblyomma americanum, UniProt A0A0C9S461 26-123);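 note: biolayer interferometry binding readings, curves fitting with R² below 0.9 dropped, every experiment run at least three times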
T1 sequence: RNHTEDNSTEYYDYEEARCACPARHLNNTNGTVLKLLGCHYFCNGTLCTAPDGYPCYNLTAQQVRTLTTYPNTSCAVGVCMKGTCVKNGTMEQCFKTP
Experiment: BLI

Input line: // Kd lookup, key: CCL1_HUMAN (ligand) KSMQVPFSRCCFSFAEQEIPLRAILCYRNTSSICSNEGLIFKLKRGKEACALDTVGWVQRHRKMLRHCPSKRK
Output line: 21.2 nM

Input line: // Kd lookup, key: CCL15_HUMAN (ligand) QFTNDAETELMMSKLPLENPVVLNSFHFAADCCTSYISQSIPCSLMKSYFETSSECSKPGVIFLTKKGRQVCAKPSGPGVQDCMKKLKPYSI
Output line: 9.61 nM

Attention now shifts to the item below.
Input line: // Kd lookup, key: CCL18_HUMAN (ligand) AQVGTNKELCCLVYTSWQIPQKFIVDYSETSPQCPKPGVILLTKRGRQICADPNKKWVQKYISDLKLNA
Output line: 0.005 nM
